# Test system: Acinetobacter baumannii ATCC 19606
# Assay Name: Antimicrobial growth inhibition (CO-ADD)
# Type: cell-based
# Reported Conditions: sigmoidal dose-response fit of growth inhibition, absorbance at 600 nm
Where no end group is shown, it is not given here.
Quantity Name: MIC

Recorded results for 5 substances are shown here.
{"Substance": "ILPALIPVFASLLPWAIKKF-NH2 [Rm55b]", "Assay System": "Acinetobacter baumannii ATCC 19606", "MIC": "14 µM"}
{"Substance": "VAPIVAMAGLGLFAAAVAGLDWLSKKV-NH2 [Rm1a]", "Assay System": "Acinetobacter baumannii ATCC 19606", "MIC": ">12 µM"}
{"Substance": "RNVPRWFTPRL-NH2 [Rm52d]", "Assay System": "Acinetobacter baumannii ATCC 19606", "MIC": ">22 µM"}
{"Substance": "FLPFLIPVIASLVSSLK-NH2 [Rm55a]", "Assay System": "Acinetobacter baumannii ATCC 19606", "MIC": ">17 µM"}
{"Substance": "ALWDTIKKWVAKVLPLVKNALK-NH2 [Rm20a]", "Assay System": "Acinetobacter baumannii ATCC 19606", "MIC": "≤0.10 µM"}

Q. Hello, I am looking for reported MIC with Acinetobacter baumannii ATCC 19606 for FIGGLIKFIAKFVPKILPFFQKKN-OH [Rm34a] . Could you help?
A. ≤0.09 µM

Q. Which MIC is reported with Acinetobacter baumannii ATCC 19606 for this entry: FWLKGGRGDG-NH2 [Rm53a/b] ?
A. >29 µM

* * *

# Tested on: Human red blood cells
# Assay Name: Hemolysis assay (CO-ADD)
# Type: cell-based
# Reported Conditions: 1 h at 37°C, absorbance at 405 nm; sigmoidal dose-response fit
Where no end group is shown, it is not given here.
Quantity Name: HC50 (concentration at 50% hemolytic activity) (µM)
All answers are understood in µM, so give the number only.

{"Substance": "FIGGLIKFIAKFVPKILPFFQKKN-OH [Rm34a]", "Value": 3.3}

Let us examine a further case.
Q. Any idea what HC50 (concentration at 50% hemolytic activity) was measured for ILPALIPVFASLLPWAIKKF-NH2 [Rm55b] ?
A. 7.4

* * *

# System: Human embryonic kidney cells ATCC CRL-1573
# Assay Name: Cytotoxicity assay (CO-ADD), resazurin
# Type: cell-based
# Reported Conditions: resazurin fluorescence; sigmoidal dose-response fit
Where no end group is shown, it is not given here.
The following substances are shown together with reported CC50 (concentration at 50% cytotoxicity) values.

{"Substance": "FLPFLIPVIASLVSSLK-NH2 [Rm55a]", "Assay System": "Human embryonic kidney cells ATCC CRL-1573", "Quantity Name": "CC50 (concentration at 50% cytotoxicity)", "Value": ">17 (CC50) uM"}
{"Substance": "ILPALIPVFASLLPWAIKKF-NH2 [Rm55b]", "Assay System": "Human embryonic kidney cells ATCC CRL-1573", "Quantity Name": "CC50 (concentration at 50% cytotoxicity)", "Value": "2.6 µM"}
{"Substance": "FIGGLIKFIAKFVPKILPFFQKKN-OH [Rm34a]", "Assay System": "Human embryonic kidney cells ATCC CRL-1573", "Quantity Name": "CC50 (concentration at 50% cytotoxicity)", "Value": "1.7 µM"}

Q. Find the measured CC50 (concentration at 50% cytotoxicity): item ALWDTIKKWVAKVLPLVKNALK-NH2 [Rm20a] , target or system Human embryonic kidney cells ATCC CRL-1573.
A. 11 µM
